# credit: patent US10597388B2

Hi there, I'd appreciate the recorded Plant response rating, Morningglory for every entry that follows.
# Tested on: morningglory (Ipomoea coccinea)
# TEST PROTOCOL: Test C greenhouse herbicide test, pre- and postemergence
# Type: in vivo
# TEST SETTINGS: Postemergence, 125 g ai/ha; scale 0 to 100, 0 is no effect, 100 is complete control
Give bare numbers.

Worked cases, answers included:
>  <MOLECULE>
Cc1nn(C)c(=O)c(-c2c(C)sc3ccc(Br)cc23)c1O [Compound 22]

>  <METRIC>
Plant response rating, Morningglory

>  <MEASURED NUMBER>
100

$$$$
>  <MOLECULE>
Cc1ccc2ccccc2c1-c1c(O)c(I)nn(C)c1=O [Compound 29]

>  <METRIC>
Plant response rating, Morningglory

>  <MEASURED NUMBER>
100

$$$$
>  <MOLECULE>
Cc1ccc2ccccc2c1-c1c(O)c(Br)nn(C)c1=O [Compound 23]

>  <METRIC>
Plant response rating, Morningglory

>  <MEASURED NUMBER>
100

$$$$
>  <MOLECULE>
COC(=O)Oc1cnn(C)c(=O)c1-c1c(C)sc2ccccc12 [Compound 97]

>  <METRIC>
Plant response rating, Morningglory

>  <MEASURED NUMBER>
30

$$$$

Enquiry: Read the entry COC(=O)Oc1c(C)nn(C)c(=O)c1-c1c(C)sc2ccc(C)cc12 [Compound 80] and write its reported Plant response rating, Morningglory.
Return: 100

* * *

# System: oilseed rape (Brassica napus)
# TEST PROTOCOL: Test C greenhouse herbicide test, pre- and postemergence
# Assay type: in vivo
# TEST SETTINGS: postemergence, 62 g ai/ha; scale 0 to 100, 0 no effect, 100 complete control
# From the text: […]
METRIC: Oilseed Rape plant response rating
Give bare numbers.

>  <CHEMICAL SMILES>
Cc1ccc2sc(C)c(-c3c(OC(=O)OC(C)C)c(C)nn(C)c3=O)c2c1

>  <MEASURED NUMBER>
10

$$$$
>  <CHEMICAL SMILES>
CCc1sc2c(C)cc(C)cc2c1-c1c(O)c(C)nn(C)c1=O

>  <MEASURED NUMBER>
0

$$$$

Now let's try a different one.
Enquiry: Read the entry Cc1ccc2ccccc2c1-c1c(O)c(I)nn(C)c1=O and write its reported Oilseed Rape plant response rating.
Return: 0

* * *

Hi there, I'd appreciate the recorded Plant response rating, Galium for every entry that follows.
# Tested on: galium (catchweed bedstraw, Galium aparine)
# TEST PROTOCOL: Test A greenhouse herbicide test, postemergence
# Assay type: in vivo
# TEST SETTINGS: 500 g ai/ha, visual rating after approx. 10 d, 0 to 100 scale (0 no effect, 100 complete control)

Worked cases, answers included:
>  <CHEMICAL SMILES>
COC(=O)Oc1c(C)nn(C)c(=O)c1-c1ccc(Br)c2ccccc12

>  <RESULT>
100

$$$$
>  <CHEMICAL SMILES>
COC(=O)Oc1c(OC)nn(C)c(=O)c1-c1c(C)sc2ccc(Cl)cc12

>  <RESULT>
90

$$$$
>  <CHEMICAL SMILES>
CCC(=O)Oc1c(Br)nn(C)c(=O)c1-c1c(C)ccc2ccccc12

>  <RESULT>
100

$$$$

Now let's try a different one.
Enquiry: Given Cc1cc(C)c2sc(C)c(-c3c(OC(=O)N4CCOCC4)c(C)nn(C)c3=O)c2c1 , report its Plant response rating, Galium on galium (catchweed bedstraw, Galium aparine).
Return: 80

* * *

Hi there, I'd appreciate the recorded Galium plant response rating for every entry that follows.
# System: galium (catchweed bedstraw, Galium aparine)
# TEST PROTOCOL: Test C greenhouse herbicide test, pre- and postemergence
# Type: in vivo
# TEST SETTINGS: Preemergence, 250 g ai/ha; scale 0 to 100, 0 no effect, 100 complete control
One number for each entry.

Worked cases, answers included:
>  <COMPOUND>
CCc1sc2c(C)cc(C)cc2c1-c1c(O)c(C)nn(C)c1=O [Compound 57]

>  <METRIC>
Galium plant response rating

>  <MEASURED NUMBER>
98

$$$$
>  <COMPOUND>
Cc1nn(C)c(=O)c(-c2ccc(Cl)c3ccccc23)c1O [Compound 139]

>  <METRIC>
Galium plant response rating

>  <MEASURED NUMBER>
100

$$$$
>  <COMPOUND>
CCc1sc2ccc(C)cc2c1-c1c(O)c(C)nn(C)c1=O [Compound 47]

>  <METRIC>
Galium plant response rating

>  <MEASURED NUMBER>
98

$$$$

Please state, for each entry, its recorded Galium plant response rating.
1. Cc1nn(C)c(=O)c(-c2cccc3ccccc23)c1O [Compound 11]
2. COC(=O)Oc1cnn(C)c(=O)c1-c1c(C)sc2ccccc12 [Compound 97]
3. CC(=O)Oc1c(C)nn(C)c(=O)c1-c1c(C)sc2ccc(Cl)cc12 [Compound 108]
4. Cc1ccc2ccccc2c1-c1c(O)c(Br)nn(C)c1=O [Compound 23]

Return:
[95, 90, 95, 100]

Please state, for each entry, its recorded Galium plant response rating.
1. COC(=O)Oc1c(C)nn(C)c(=O)c1-c1ccc(Br)c2ccccc12 [Compound 145]
2. CC(=O)Oc1c(C)nn(C)c(=O)c1-c1c(C)sc2ccc(C(F)(F)F)cc12 [Compound 132]

Return:
1: 98; 2: 98

* * *

# Test system: rice (Oryza sativa)
# TEST PROTOCOL: Test B flooded paddy test
# Assay type: in vivo
# TEST SETTINGS: 250 g ai/ha, Flood; visual rating on scale of 0 to 100 where 0 is no effect and 100 is complete control; 13 to 15 d after treatment
# Description: Plant species in the flooded paddy test selected from rice (Oryza sativa), sedge, umbrella (small-flower umbrella sedge, Cyperus difformis), ducksalad (Heteranthera limosa), and barnyardgrass (Echinochloa crus-galli) were grown to the 2-leaf stage for testing. […] Treated plants and controls were maintained in a greenhouse for 13 to 15 d, after which time all species were compared to controls and visually evaluated. […]
METRIC: Plant response rating, Rice
Answers are plain numbers.

Worked cases, answers included:
>  <CHEMICAL SMILES>
Cc1n[nH]c(=O)c(-c2cccc3ccccc23)c1OCC(F)F

>  <METRIC>
Plant response rating, Rice

>  <MEASURED NUMBER>
0

$$$$
>  <CHEMICAL SMILES>
Cc1cc(C)c2ccccc2c1-c1c(O)c(C)nn(C)c1=O

>  <METRIC>
Plant response rating, Rice

>  <MEASURED NUMBER>
55

$$$$
>  <CHEMICAL SMILES>
Cn1nc(Br)c(O)c(-c2cccc3ccccc23)c1=O

>  <METRIC>
Plant response rating, Rice

>  <MEASURED NUMBER>
0

$$$$

Please state, for each entry, its recorded Plant response rating, Rice.
1. Cc1ccc2ccc(Cl)cc2c1-c1c(O)c(C)nn(C)c1=O
2. COC(=O)Oc1c(C)nn(C)c(=O)c1-c1ccc(F)c2ccccc12

Return:
1. 30
2. 0

* * *

Hi there, I'd appreciate the recorded Plant response rating, Barnyardgrass for every entry that follows.
# Tested on: barnyardgrass (Echinochloa crus-galli)
# TEST PROTOCOL: Test A greenhouse herbicide test, pre- and postemergence
# Format: in vivo
# TEST SETTINGS: Preemergence, 500 g ai/ha; 0 to 100 scale, 0 no effect, 100 complete control
Numbers only.

>  <MOLECULE>
Cc1ccc2sc(C)c(-c3c(OC(=O)C(C)(C)C)c(C)nn(C)c3=O)c2c1 [Compound 26]

>  <TESTED TARGET>
barnyardgrass (Echinochloa crus-galli)

>  <MEASURED NUMBER>
10

$$$$
>  <MOLECULE>
CCc1sc2ccc(C)cc2c1-c1c(O)c(C)nn(C)c1=O [Compound 47]

>  <TESTED TARGET>
barnyardgrass (Echinochloa crus-galli)

>  <MEASURED NUMBER>
90

$$$$
>  <MOLECULE>
Cn1nc(Br)c(O)c(-c2cccc3ccccc23)c1=O [Compound 20]

>  <TESTED TARGET>
barnyardgrass (Echinochloa crus-galli)

>  <MEASURED NUMBER>
90

$$$$
>  <MOLECULE>
Cc1nn(C)c(=O)c(-c2c(C)n(C)c3ccc(Cl)cc23)c1O [Compound 74]

>  <TESTED TARGET>
barnyardgrass (Echinochloa crus-galli)

>  <MEASURED NUMBER>
0

$$$$
>  <MOLECULE>
COc1ccc(-c2c(O)c(C)nn(C)c2=O)c2ccccc12 [Compound 58]

>  <TESTED TARGET>
barnyardgrass (Echinochloa crus-galli)

>  <MEASURED NUMBER>
20

$$$$

Enquiry: Read the entry Cc1cc2ccccc2c(-c2c(O)c(C)nn(C)c2=O)c1C [Compound 34] and write its reported Plant response rating, Barnyardgrass.
Return: 80

* * *

# System: kochia (Kochia scoparia)
# TEST PROTOCOL: Test D controlled growth environment herbicide test, pre- and postemergence
# Type: in vivo
# TEST SETTINGS: Postemergence, 31 g ai/ha; scale 0 to 100 (0 no effect, 100 complete control)
METRIC: Kochia plant response rating

Worked cases, answers included:
>  <MOLECULE>
Cc1nn(C)c(=O)c(-c2c(C)sc3ccc(Br)cc23)c1O [Compound 22]

>  <METRIC>
Kochia plant response rating

>  <RESULT>
80

$$$$
>  <MOLECULE>
Cc1nn(C)c(=O)c(-c2ccc(F)c3ccccc23)c1O [Compound 41]

>  <METRIC>
Kochia plant response rating

>  <RESULT>
85

$$$$
>  <MOLECULE>
Cc1cc(C)c2ccccc2c1-c1c(O)c(C)nn(C)c1=O [Compound 21]

>  <METRIC>
Kochia plant response rating

>  <RESULT>
35

$$$$

Enquiry: Read the entry Cc1nn(C)c(=O)c(-c2cccc3ccc(Br)cc23)c1O [Compound 126] and write its reported Kochia plant response rating.
Return: 75
